The values you see were collected from patent US20100092481A1.

molecular target: T1, hCMV gH, gL, UL128, UL130 and UL131A co-expressed in HEK293T cells (human cytomegalovirus, UniProt P12824 24-743; P16832 31-278; P16837 1-171; P16772 1-214); assay: cell cross-competition, 20x excess; competitor 8I21-biotin
T1 construct: whole, on cells; also called gH + gL + UL128 + UL130 + UL131A; gH/gL/UL128-130 complex
Endpoint: Inhibition of binding (%)

INSERT INTO assay_data (binder, unit_info, number) VALUES
  ('7B13 (antibody, V domains shown, human IgG mAb) VH: QVQLVESGGGVVQPGGSLRLSCAASGFSFSNYGMHWVRQAPGKGLEWVALIPSDGNYQYYTDSVKGRFTVSRDNSRNTLYLQMKSLRAEDTARYHCAHLGGGLFDFWGQGTLVTVSS VL: QSALNQPRSVSGSPGQSVSISCTGSSSDVGGYEFVSWYQHHPGKAPKLIIYDVDKRPSGVPDRFSGSRSGDTASLTISGLQAEDEADYYCYSSADTWVFGGGTKLTVL', '%', 0),
  ('4I22 (antibody, V domains shown, human IgG mAb; also called 4I22-biotin) VH: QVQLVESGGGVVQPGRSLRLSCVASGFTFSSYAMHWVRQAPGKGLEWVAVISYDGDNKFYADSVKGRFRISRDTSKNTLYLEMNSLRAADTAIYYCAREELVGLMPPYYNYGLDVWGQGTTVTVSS VL: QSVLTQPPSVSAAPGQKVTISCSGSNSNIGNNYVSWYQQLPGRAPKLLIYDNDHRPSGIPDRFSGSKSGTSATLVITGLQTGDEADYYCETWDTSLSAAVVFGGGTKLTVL', '%', 0);
